assay: clinical; conditions: both, human, in vivo, po, 261.7 mg
readout: MRT (h)
Field format: number, assumed h, no unit text.

Give a short answer stating reported MRT for Cn1c(=O)c2c(ncn2C)n(C)c1=O [caffeine, reference compound] . 4.3

Others:
Give a short answer stating reported MRT for [2H]C([2H])([2H])n1c(=O)c2c(ncn2C([2H])([2H])[2H])n(C([2H])([2H])[2H])c1=O . 18.9

* * *

Measured half-life values are reported for all entries that follow.
experiment: clinical; settings: both, human, in vivo, po, 50 mg
Field format: number, assumed h, no unit text.

Give a short answer stating reported half-life for Cn1c(=O)c2c(ncn2C)n(C)c1=O [caffeine, reference compound] . 5.41

Then there is this molecule:
Give a short answer stating reported half-life for [2H]C([2H])([2H])n1c(=O)c2c(ncn2C([2H])([2H])[2H])n(C([2H])([2H])[2H])c1=O . 32.2
